system: Tie2 (Homo sapiens)
Sequence (Q02763 23-1124, species assumed): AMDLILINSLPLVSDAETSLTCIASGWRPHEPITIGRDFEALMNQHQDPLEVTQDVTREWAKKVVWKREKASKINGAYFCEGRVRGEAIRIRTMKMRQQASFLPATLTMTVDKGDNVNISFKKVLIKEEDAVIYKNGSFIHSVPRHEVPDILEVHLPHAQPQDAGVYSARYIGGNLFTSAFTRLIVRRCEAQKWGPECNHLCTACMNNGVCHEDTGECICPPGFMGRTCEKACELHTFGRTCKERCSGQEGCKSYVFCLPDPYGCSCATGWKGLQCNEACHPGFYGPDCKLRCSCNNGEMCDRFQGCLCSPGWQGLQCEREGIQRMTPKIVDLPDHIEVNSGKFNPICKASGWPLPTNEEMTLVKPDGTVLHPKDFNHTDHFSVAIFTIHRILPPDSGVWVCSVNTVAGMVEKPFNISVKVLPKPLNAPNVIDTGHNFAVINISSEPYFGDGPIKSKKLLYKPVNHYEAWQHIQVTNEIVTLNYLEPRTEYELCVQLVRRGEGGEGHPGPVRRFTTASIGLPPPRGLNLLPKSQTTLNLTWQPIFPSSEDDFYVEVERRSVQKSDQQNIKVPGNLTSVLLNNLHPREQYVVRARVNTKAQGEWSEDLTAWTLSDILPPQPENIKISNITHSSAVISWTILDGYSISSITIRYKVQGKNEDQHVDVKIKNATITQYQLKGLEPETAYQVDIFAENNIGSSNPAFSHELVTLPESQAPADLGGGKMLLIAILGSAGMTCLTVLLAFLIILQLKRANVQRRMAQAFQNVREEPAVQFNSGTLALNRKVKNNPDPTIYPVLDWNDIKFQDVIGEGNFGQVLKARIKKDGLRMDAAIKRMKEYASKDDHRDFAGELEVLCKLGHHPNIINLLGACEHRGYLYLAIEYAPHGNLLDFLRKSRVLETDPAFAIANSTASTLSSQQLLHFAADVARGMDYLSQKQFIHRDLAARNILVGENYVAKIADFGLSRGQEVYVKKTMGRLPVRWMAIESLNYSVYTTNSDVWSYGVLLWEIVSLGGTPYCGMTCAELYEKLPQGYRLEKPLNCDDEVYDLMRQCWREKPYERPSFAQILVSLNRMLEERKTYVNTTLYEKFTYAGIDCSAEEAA
pIC50: −log10 of the molar value.
pIC50 values by entry

molecule	pIC50
CC(C)Nc1nc(-c2ccco2)nc2ccc(/C=C/C(C)(C)O)cc12 [Compound (A)]	< 4.00

QUERY: Give the value of pIC50 reported for the following: CC(C)Nc1nc(-c2ccco2)nc2ccc(C#CCO)cc12 [Compound (C)]
RESULT: < 4.00

---

IC50 values by entry
system: EGFR (Homo sapiens, UniProt P00533)
Sequence (P00533 25-1210, species assumed): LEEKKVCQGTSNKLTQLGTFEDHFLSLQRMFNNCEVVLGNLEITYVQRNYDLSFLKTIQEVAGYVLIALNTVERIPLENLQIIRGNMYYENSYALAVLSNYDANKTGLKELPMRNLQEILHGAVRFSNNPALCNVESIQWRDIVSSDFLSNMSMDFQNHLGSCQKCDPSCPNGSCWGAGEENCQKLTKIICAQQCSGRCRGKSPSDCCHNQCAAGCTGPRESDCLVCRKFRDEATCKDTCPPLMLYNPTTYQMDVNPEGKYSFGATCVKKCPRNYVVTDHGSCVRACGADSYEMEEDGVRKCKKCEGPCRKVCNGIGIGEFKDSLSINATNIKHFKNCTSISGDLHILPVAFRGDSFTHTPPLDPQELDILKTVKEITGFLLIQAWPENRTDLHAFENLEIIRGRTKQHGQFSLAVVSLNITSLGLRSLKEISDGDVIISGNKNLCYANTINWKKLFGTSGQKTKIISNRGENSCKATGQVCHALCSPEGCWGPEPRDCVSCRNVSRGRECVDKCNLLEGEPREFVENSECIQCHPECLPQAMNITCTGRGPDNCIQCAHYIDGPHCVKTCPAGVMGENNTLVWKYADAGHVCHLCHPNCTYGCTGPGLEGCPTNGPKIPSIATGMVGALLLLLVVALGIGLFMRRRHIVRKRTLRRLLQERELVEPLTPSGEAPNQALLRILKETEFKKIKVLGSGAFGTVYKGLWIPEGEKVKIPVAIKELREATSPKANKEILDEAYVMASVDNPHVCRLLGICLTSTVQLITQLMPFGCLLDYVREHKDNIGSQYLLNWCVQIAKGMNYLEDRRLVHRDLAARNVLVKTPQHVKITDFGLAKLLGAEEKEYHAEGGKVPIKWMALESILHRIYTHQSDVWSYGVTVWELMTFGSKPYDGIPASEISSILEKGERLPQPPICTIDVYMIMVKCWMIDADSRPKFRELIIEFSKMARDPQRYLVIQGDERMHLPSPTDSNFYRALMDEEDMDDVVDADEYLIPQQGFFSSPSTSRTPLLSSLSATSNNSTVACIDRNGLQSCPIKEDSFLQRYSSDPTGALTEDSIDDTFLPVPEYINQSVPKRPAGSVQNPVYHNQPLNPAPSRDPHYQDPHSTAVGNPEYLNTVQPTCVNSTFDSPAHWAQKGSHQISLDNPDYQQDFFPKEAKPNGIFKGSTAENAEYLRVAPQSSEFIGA

structure_notation	system	recorded_value
CC(C)Nc1nc(-c2ccco2)nc2ccc(C#CCO)cc12	EGFR (Homo sapiens, UniProt P00533)	> 100 µM

Now consider a different compound.
QUERY: // output IC50; input `CC(C)Nc1nc(-c2ccco2)nc2ccc(/C=C/C(C)(C)O)cc12` ; system EGFR (Homo sapiens, UniProt P00533)
RESULT: > 100 µM

---

system: Flt-4 (VEGFR3) (Homo sapiens, UniProt P35916)
Sequence (P35916 25-1363, species assumed): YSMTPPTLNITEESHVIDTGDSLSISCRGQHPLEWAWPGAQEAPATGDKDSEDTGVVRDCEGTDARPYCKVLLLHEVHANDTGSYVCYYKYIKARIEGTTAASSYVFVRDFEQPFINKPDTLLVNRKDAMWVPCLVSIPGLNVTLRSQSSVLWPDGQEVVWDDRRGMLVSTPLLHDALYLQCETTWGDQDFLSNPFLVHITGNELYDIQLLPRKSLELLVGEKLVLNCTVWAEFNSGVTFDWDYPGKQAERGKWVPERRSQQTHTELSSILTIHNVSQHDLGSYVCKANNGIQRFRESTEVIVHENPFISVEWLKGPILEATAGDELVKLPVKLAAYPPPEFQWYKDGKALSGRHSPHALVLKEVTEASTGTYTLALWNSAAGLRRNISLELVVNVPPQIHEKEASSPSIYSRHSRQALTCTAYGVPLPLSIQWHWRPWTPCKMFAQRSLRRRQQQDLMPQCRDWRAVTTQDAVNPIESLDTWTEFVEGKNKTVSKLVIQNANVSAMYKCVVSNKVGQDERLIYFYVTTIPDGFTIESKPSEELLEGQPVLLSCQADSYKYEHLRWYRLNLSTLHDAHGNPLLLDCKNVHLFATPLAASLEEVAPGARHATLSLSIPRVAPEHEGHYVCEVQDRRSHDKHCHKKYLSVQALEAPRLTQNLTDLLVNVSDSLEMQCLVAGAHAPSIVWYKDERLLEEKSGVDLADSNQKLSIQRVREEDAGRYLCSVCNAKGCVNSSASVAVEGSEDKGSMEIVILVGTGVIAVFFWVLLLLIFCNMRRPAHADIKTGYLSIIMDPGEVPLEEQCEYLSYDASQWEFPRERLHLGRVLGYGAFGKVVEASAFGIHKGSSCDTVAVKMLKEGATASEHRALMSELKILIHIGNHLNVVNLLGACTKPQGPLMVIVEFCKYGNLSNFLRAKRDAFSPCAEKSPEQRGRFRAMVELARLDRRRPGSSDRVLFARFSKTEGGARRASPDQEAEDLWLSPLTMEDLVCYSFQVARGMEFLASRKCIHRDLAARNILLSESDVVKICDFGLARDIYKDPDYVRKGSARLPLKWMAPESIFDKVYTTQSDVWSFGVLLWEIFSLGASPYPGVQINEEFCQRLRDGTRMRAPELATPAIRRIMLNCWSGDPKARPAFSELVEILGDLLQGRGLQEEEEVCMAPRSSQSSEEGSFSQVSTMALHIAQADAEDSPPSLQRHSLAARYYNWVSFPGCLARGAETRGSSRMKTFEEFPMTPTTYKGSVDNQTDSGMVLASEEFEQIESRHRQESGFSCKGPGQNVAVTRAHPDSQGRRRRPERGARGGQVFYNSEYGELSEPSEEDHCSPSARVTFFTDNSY
property_label: pIC50
// pIC50 is dimensionless: -log10 of concentration (M)

QUERY: // output pIC50; input `CC(C)Nc1nc(-c2ccco2)nc2ccc(/C=C/C(C)(C)O)cc12` ; system Flt-4 (VEGFR3) (Homo sapiens, UniProt P35916)
RESULT: 5.37
